experiment: Partition coefficient, log P of the compound; assay type: physicochemical; conditions: octanol/water; read-out: LogP
Measure Name: logP
Give the figure only, with no unit attached.

Examples with their reported logP follow.
CC(=O)O[C@@H]1[C@H](OC(C)=O)[C@@H](C)[C@@]23C[C@@H](C[C@H](OC(=O)/C=C/c4ccccc4)[C@]2(C)[C@H]1OC(=O)c1ccccc1)C(C)(C)O3    7.4
CC(=O)OC[C@]12[C@@H](OC(=O)c3ccccc3)C[C@@H]3[C@@H](OC(C)=O)[C@]1(OC3(C)C)[C@](C)(O)C[C@H](OC(C)=O)[C@@H]2OC(C)=O    5
CC(=O)O[C@H]1[C@@H](O)[C@H](OC(=O)c2ccccc2)[C@@]2(C)[C@@H](OC(=O)/C=C/c3ccccc3)C[C@@H]3C[C@]2(OC3(C)C)[C@@H]1C    6.2
CCCCCO[C@H]1C[C@@](C)(O)[C@]23OC(C)(C)[C@H](C[C@H](OC(=O)c4ccco4)[C@]2(C)[C@H]1OC(C)=O)[C@H]3OC(=O)c1ccco1    6.6
CC(=O)OC[C@]12[C@H](OC(=O)c3ccccc3)C(=O)[C@@H]3[C@@H](OC(C)=O)[C@]1(OC3(C)C)[C@H](C)C[C@H](OC(C)=O)[C@@H]2OC(=O)c1ccccc1    8.1

# input Look up logP for this molecule: "CC(=O)OC[C@]12[C@@H](OC(=O)c3ccccc3)C[C@@H]3[C@@H](OC(C)=O)[C@]1(OC3(C)C)[C@H](C)C[C@H](OC(=O)c1ccccc1)[C@@H]2OC(C)=O"
# output 7.7

# input And then "CC(=O)O[C@H]1[C@H](OC(=O)c2ccccc2)[C@@]2(C)[C@@H](OC(=O)c3ccccc3)[C@@H](OC(=O)c3ccccc3)[C@@H]3C[C@]2(OC3(C)C)[C@](C)(O)[C@H]1OC(C)=O" , what is it?
# output 8.8

###

test: Partition coefficient, log P of the compound; assay type: physicochemical; details: octanol/water; read-out: LogP
Quick rule for you: logP under 7 gets Satisfied, anything else gets Not satisfied.

Example entries and their recorded answers appear below.
CC(=O)O[C@H]1[C@@H]2C[C@@]3(OC2(C)C)[C@](C)([C@H]1OC(=O)c1ccccc1)[C@@H](OC(=O)c1cccnc1)[C@H](OC(C)=O)[C@H](OC(=O)c1ccccc1)[C@@]3(C)O    Not satisfied
CC(=O)O[C@H]1[C@@H](OC(=O)c2ccccc2)C[C@@](C)(O)[C@]23OC(C)(C)[C@H](C[C@H](OC(=O)c4ccco4)[C@]12C)[C@H]3O    Satisfied
CC(=O)OC[C@]12[C@@H](OC(=O)c3ccco3)C[C@@H]3[C@@H](OC(=O)c4ccco4)[C@]1(OC3(C)C)[C@](C)(O)C[C@H](OC(C)=O)[C@@H]2OC(C)=O    Satisfied

Next up:
# input In the record for "CC(=O)O[C@H]1C[C@@](C)(O)[C@]23OC(C)(C)[C@H](C[C@H](OC(=O)c4ccco4)[C@]2(C)[C@H]1OC(C)=O)[C@H]3OC(=O)c1ccco1" , is logP less than 7?
# output Satisfied

###

A collection of molecules and their measured logP
experiment: Partition coefficient, log P of the compound; assay type: physicochemical; details: octanol/water; read-out: LogP
Give the figure only, with no unit attached.

Examples with their reported logP follow.
CCCO[C@H]1C[C@@](C)(O)[C@]23OC(C)(C)[C@H](C[C@H](OC(=O)c4ccco4)[C@]2(C)[C@H]1OC(C)=O)[C@H]3OC(=O)c1ccco1    6.2
CC(=O)OC[C@]12[C@H](OC(C)=O)C(=O)[C@@H]3[C@@H](OC(C)=O)[C@]1(OC3(C)C)[C@H](C)C[C@H](OC(C)=O)[C@@H]2OC(=O)c1ccccc1    6.1
CC(=O)O[C@H]1[C@H](OC(=O)c2ccccc2)[C@@]2(C)[C@@H](OC(=O)c3ccccc3)C[C@@H]3[C@@H](OC(C)=O)[C@]2(OC3(C)C)[C@](C)(O)[C@H]1OC(=O)c1cccnc1    8
CC(=O)O[C@H]1[C@@H](O)C[C@@](C)(O)[C@]23OC(C)(C)[C@H](C[C@H](OC(=O)c4ccco4)[C@]12C)[C@H]3OC(=O)c1ccco1    4.3

Shift focus to the following entry.
# input Look up logP for this molecule: "CC(=O)O[C@H]1[C@@H](OC(=O)c2ccccc2)C[C@@](C)(O)[C@]23OC(C)(C)[C@H](C[C@H](OC(=O)c4ccco4)[C@]12C)[C@H]3OC(=O)C(F)(F)F"
# output 6.4

###

molecular target: UniProtKB P08183; assay: Inhibition of human Pgp-mediated DNR transport in NIH3T3 cells by microplate assay; type: cell-based, Mus musculus; conditions: read-out: Ki
Measure Name: Ki (nM)
Record the value in nM, omitting the unit from your answer.

CC(=O)O[C@H]1[C@H](OC(=O)c2ccccc2)[C@@]2(C)[C@@H](OC(=O)c3ccccc3)C[C@@H]3[C@@H](OC(C)=O)[C@]2(OC3(C)C)[C@](C)(O)[C@H]1OC(=O)c1cccnc1    3750

# input Recorded Ki for "CC(=O)OC[C@]12[C@H](OC(=O)c3ccccc3)[C@H](OC(=O)c3ccccc3)[C@@H]3[C@@H](OC(C)=O)[C@]1(OC3(C)C)[C@H](C)C[C@H](OC(=O)c1ccccc1)[C@@H]2OC(=O)c1ccccc1" with UniProtKB P08183, please?
# output 1980

# input And then "CC(=O)OC[C@]12[C@@H](OC(=O)c3ccccc3)C[C@@H]3[C@@H](OC(C)=O)[C@]1(OC3(C)C)[C@](C)(O)C[C@H](OC(C)=O)[C@@H]2OC(C)=O" , what is it?
# output 4390

# input And then "CC(=O)O[C@@H]1[C@H]2[C@H](O)[C@H](OC(=O)c3ccccc3)[C@]3(C)[C@@H](OC(=O)c4ccccc4)[C@@H](OC(=O)c4ccccc4)C[C@@](C)(O)[C@@]13OC2(C)C" , what is it?
# output 1210

# input And then "CC(=O)O[C@H]1C[C@@](C)(O)[C@]23OC(C)(C)[C@H](C[C@H](OC(=O)c4ccco4)[C@]2(C)[C@H]1OC(C)=O)[C@H]3OC(=O)c1cccc2ccccc12" , what is it?
# output 1650

###

target: ATP-dependent translocase ABCB1 (Homo sapiens, UniProt P08183); experiment: Inhibition of human Pgp-mediated DNR transport in NIH3T3 cells by microplate assay; assay type: cell-based, Mus musculus; conditions: read-out: Ki
Sequence (P08183 whole entry): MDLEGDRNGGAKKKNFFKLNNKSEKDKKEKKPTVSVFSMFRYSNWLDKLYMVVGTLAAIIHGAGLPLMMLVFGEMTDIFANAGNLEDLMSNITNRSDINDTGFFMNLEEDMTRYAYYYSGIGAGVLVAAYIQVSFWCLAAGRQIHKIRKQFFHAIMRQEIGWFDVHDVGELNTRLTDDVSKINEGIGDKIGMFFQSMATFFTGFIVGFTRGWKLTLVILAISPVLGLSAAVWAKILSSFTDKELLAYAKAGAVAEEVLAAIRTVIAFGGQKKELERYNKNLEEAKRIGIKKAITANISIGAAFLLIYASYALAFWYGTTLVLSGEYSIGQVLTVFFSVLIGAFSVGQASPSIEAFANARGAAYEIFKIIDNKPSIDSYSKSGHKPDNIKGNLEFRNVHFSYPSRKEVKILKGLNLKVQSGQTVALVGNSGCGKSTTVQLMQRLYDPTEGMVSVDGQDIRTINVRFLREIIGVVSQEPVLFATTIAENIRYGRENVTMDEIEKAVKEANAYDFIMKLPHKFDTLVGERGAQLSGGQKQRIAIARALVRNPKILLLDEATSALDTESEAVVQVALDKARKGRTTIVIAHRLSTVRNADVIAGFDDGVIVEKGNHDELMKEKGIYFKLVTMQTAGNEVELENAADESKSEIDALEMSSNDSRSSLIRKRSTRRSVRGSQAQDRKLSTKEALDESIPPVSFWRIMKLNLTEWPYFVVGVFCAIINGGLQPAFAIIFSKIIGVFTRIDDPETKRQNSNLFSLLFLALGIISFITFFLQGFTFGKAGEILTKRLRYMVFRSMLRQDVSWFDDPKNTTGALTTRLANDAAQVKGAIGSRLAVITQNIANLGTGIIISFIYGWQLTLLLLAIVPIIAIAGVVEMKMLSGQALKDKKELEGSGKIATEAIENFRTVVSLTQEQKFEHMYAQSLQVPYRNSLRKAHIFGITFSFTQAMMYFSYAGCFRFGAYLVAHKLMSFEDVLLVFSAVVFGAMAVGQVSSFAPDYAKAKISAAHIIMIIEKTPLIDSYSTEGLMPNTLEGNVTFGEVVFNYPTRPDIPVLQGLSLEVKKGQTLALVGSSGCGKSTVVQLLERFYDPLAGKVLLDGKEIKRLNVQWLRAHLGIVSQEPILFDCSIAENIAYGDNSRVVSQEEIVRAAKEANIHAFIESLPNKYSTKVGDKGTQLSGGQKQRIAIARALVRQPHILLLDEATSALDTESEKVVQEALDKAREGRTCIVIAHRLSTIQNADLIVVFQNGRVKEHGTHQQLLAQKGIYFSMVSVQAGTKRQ
Quick rule for you: Ki under 4 µM gets y, anything else gets n.

CC(=O)O[C@H]1[C@H](OC(=O)c2ccccc2)[C@@]2(C)[C@@H](OC(=O)c3ccccc3)[C@@H](OC(=O)c3ccccc3)[C@@H]3C[C@]2(OC3(C)C)[C@](C)(O)[C@H]1OC(C)=O    y
CC(=O)OC[C@]12[C@@H](OC(=O)c3ccco3)C[C@@H]3[C@@H](OC(C)=O)[C@]1(OC3(C)C)[C@](C)(O)C[C@H](OC(=O)c1ccco1)[C@@H]2OC(=O)c1ccco1    n

# input In the record for "CC(=O)O[C@H]1C[C@@](C)(O)[C@]23OC(C)(C)[C@H]([C@H](OC(=O)c4ccccc4)[C@H](OC(=O)c4ccccc4)[C@]2(CO)[C@H]1OC(C)=O)[C@H]3OC(C)=O" , is Ki less than 4 µM?
# output n

# input And then "CC(=O)OC[C@]12[C@@H](OC(=O)c3ccccc3)C[C@@H]3[C@@H](OC(=O)c4ccccc4)[C@]1(OC3(C)C)[C@H](C)C[C@H](OC(=O)c1cccnc1)[C@@H]2OC(C)=O" , what is it?
# output y

# input And then "CC(=O)OC[C@]12[C@H](OC(=O)c3ccccc3)C(=O)[C@@H]3[C@@H](OC(C)=O)[C@]1(OC3(C)C)[C@H](C)C[C@H](OC(C)=O)[C@@H]2O" , what is it?
# output n

# input And then "CC(=O)O[C@@H]1[C@H]2C[C@H](OC(=O)c3ccco3)[C@]3(C)[C@@H](OC(C)=O)[C@@H](OC(=O)c4ccco4)C[C@@](C)(O)[C@@]13OC2(C)C" , what is it?
# output n

# input And then "CCCO[C@H]1C[C@@](C)(O)[C@]23OC(C)(C)[C@H](C[C@H](OC(=O)c4ccco4)[C@]2(C)[C@H]1OC(C)=O)[C@H]3OC(=O)c1ccco1" , what is it?
# output y

###

target: ATP-dependent translocase ABCB1 (Homo sapiens, UniProt P08183); assay: Inhibition of human Pgp-mediated DNR transport in NIH3T3 cells by microplate assay; format: cell-based, Mus musculus; conditions: read-out: Ki
A collection of compounds and their measured Ki
Record the value in µM, omitting the unit from your answer.

Examples with their reported Ki follow.
CC(=O)O[C@H]1C[C@@](C)(O)[C@]23OC(C)(C)[C@H](C[C@H](OC(=O)c4ccco4)[C@]2(C)[C@H]1OC(C)=O)[C@H]3OC(=O)c1ccccc1    8.94
CC(=O)OC[C@]12[C@H](OC(C)=O)C(=O)[C@@H]3[C@@H](OC(C)=O)[C@]1(OC3(C)C)[C@H](C)C[C@H](OC(C)=O)[C@@H]2OC(=O)c1ccccc1    5.74
C[C@@H]1[C@@H](O)[C@@H](O)[C@H](OC(=O)c2ccccc2)[C@@]2(C)[C@@H](OC(=O)/C=C/c3ccccc3)C[C@@H]3C[C@]12OC3(C)C    6.94

# input Recorded Ki for "CC(=O)O[C@H]1C[C@@](C)(O)[C@]23OC(C)(C)[C@H]([C@H](OC(=O)c4ccccc4)[C@H](OC(=O)c4ccccc4)[C@]2(C)[C@H]1OC(=O)c1ccccc1)[C@H]3OC(C)=O" with ATP-dependent translocase ABCB1 (Homo sapiens, UniProt P08183), please?
# output 0.91

# input And then "CCCCCO[C@H]1[C@@H](OC(=O)c2ccco2)C[C@@](C)(O)[C@]23OC(C)(C)[C@H](C[C@H](OC(=O)c4ccco4)[C@]12COC(C)=O)[C@H]3OC(C)=O" , what is it?
# output 1.94

These measurements were taken from ChEMBL document CHEMBL1148809.
